B1: LCOR (parent)
chain: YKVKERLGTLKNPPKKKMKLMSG

Variants of: B1
assay-info: protein stability index of a GFP-peptide fusion (GPS, HEK-293T) (PSI 1-6); higher = more stable;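 also: lentivirally expressed fusions sorted by FACS into six bins by GFP to DsRed ratio, PSI derived from sequencing read proportions per bin multiplied by bin number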
condition: c terminus: native
Provide the recorded protein stability index for the entries that follow.
// response body must contain only the number

Item under review: "K19P" . Reported protein stability index? 2.26

Item under review: "K11G" . Reported protein stability index? 3.44

Item under review: "G8Y" . Reported protein stability index? 2.08

Item under review: "G23N" . Reported protein stability index? 2.43

Item under review: "L7S" . Reported protein stability index? 1.55

Item under review: "K2V" . Reported protein stability index? 3.04

Item under review: "K16F" . Reported protein stability index? 1.45

Item under review: "M18L" . Reported protein stability index? 1.81

Item under review: "K16Y" . Reported protein stability index? 2.98

Item under review: "M18E" . Reported protein stability index? 2.24

Item under review: "K2H" . Reported protein stability index? 1.88

Item under review: "K4A" . Reported protein stability index? 1.88

Item under review: "G23D" . Reported protein stability index? 4.01

Item under review: "G23Y" . Reported protein stability index? 2.57

Item under review: "K15N" . Reported protein stability index? 2.34

Item under review: "K19I" . Reported protein stability index? 3.48

Item under review: "L7E" . Reported protein stability index? 2.04

Item under review: "K2I" . Reported protein stability index? 1.72

Item under review: "K4E" . Reported protein stability index? 2.48

Item under review: "L20N" . Reported protein stability index? 2.43

Item under review: "M21T" . Reported protein stability index? 1.76

Item under review: "N12I" . Reported protein stability index? 1.09

Item under review: "K15E" . Reported protein stability index? 2.66

Item under review: "K2L" . Reported protein stability index? 3.05

Item under review: "Y1D" . Reported protein stability index? 2.03

Item under review: "R6W" . Reported protein stability index? 2.79

Item under review: "S22I" . Reported protein stability index? 2.45

Item under review: "K11H" . Reported protein stability index? 1.79

Item under review: "V3W" . Reported protein stability index? 3.38

Item under review: "Y1N" . Reported protein stability index? 1.9

Item under review: "L20A" . Reported protein stability index? 3.14

Item under review: "P13N" . Reported protein stability index? 2.05

Item under review: "L10G" . Reported protein stability index? 1.35

Item under review: "K15R" . Reported protein stability index? 2.04

Item under review: "M21I" . Reported protein stability index? 1.92

Item under review: "N12D" . Reported protein stability index? 1.65

Item under review: "N12W" . Reported protein stability index? 2.83

Item under review: "E5D" . Reported protein stability index? 1.78

Item under review: "G23K" . Reported protein stability index? 3.41

Item under review: "S22L" . Reported protein stability index? 2.19

Item under review: "E5P" . Reported protein stability index? 2.25

Item under review: "L20F" . Reported protein stability index? 2.55

Item under review: "K16L" . Reported protein stability index? 2.34

Item under review: "G23F" . Reported protein stability index? 2.15

Item under review: "G8Q" . Reported protein stability index? 3.21

Item under review: "S22Y" . Reported protein stability index? 2.65

These measurements were taken from the supplement of paper PMC10567573.
